Could you please report measured IC50 for the items listed next?
test system: Ebola VLP entry into HeLa cells; assay: microbe, parasite or virus in culture; type: cell-based, Ebola virus; details: Zaire ebolavirus, HeLa, read-out: Block Ebola VLP entry IC50
The reply should contain only the number, in µM.

Value sought: IC50, system Ebola VLP entry into HeLa cells, item CN1CCN(CCCN2c3ccccc3Sc3ccc(C(F)(F)F)cc32)CC1 . Result: 4.48

Value sought: IC50, system Ebola VLP entry into HeLa cells, item C[C@H]1O[C@@H](O[C@H]2[C@@H](O)C[C@H](O[C@H]3[C@@H](O)C[C@H](O[C@H]4CC[C@@]5(C)[C@H](CC[C@@H]6[C@@H]5C[C@@H](O)[C@]5(C)[C@@H](C7=CC(=O)OC7)CC[C@]65O)C4)O[C@@H]3C)O[C@@H]2C)C[C@H](O)[C@@H]1O . Result: 0.763

Value sought: IC50, system Ebola VLP entry into HeLa cells, item CN1CCN(CC/C=C2/c3ccccc3Sc3ccc(S(=O)(=O)N(C)C)cc32)CC1 . Result: 1.92

Value sought: IC50, system Ebola VLP entry into HeLa cells, item CC[C@H]1OC(=O)[C@H](C)[C@@H](O[C@H]2C[C@@](C)(OC)[C@@H](O)[C@H](C)O2)[C@H](C)[C@@H](O[C@@H]2O[C@H](C)C[C@H](N(C)C)[C@H]2O)[C@](C)(OC)C[C@@H](C)C(=O)[C@H](C)[C@@H](O)[C@]1(C)O . Result: 4.53

Value sought: IC50, system Ebola VLP entry into HeLa cells, item COC(=O)Nc1nc2ccc(C(=O)c3cccs3)cc2[nH]1 . Result: 0.402

###

experiment: in vitro; conditions: human, Cytotoxicity IC50
Could you please report measured IC50 for the items listed next?

Memo: CCCNCC(O)COc1ccccc1C(=O)CCc1ccccc1 (stereo not drawn) , reported IC50: > 500 µM

Memo: CCN(CC)Cc1cc(Nc2ccnc3cc(Cl)ccc23)ccc1O , reported IC50: > 500 µM

Memo: CCCOc1ccc2nc(NC(=O)OC)[nH]c2c1 , reported IC50: > 500 µM

Memo: CCN(CC)CCOc1ccc2c(c1)C(=O)c1cc(OCCN(CC)CC)ccc1-2 , reported IC50: > 500 µM

Memo: CC[C@H]1OC(=O)[C@H](C)[C@@H](O[C@H]2C[C@@](C)(OC)[C@@H](O)[C@H](C)O2)[C@H](C)[C@@H](O[C@@H]2O[C@H](C)C[C@H](N(C)C)[C@H]2O)[C@](C)(O)C[C@@H](C)CN(C)[C@H](C)[C@@H](O)[C@]1(C)O , reported IC50: > 500 µM

Memo: COc1ccc2cc1Oc1ccc(cc1)C[C@H]1c3c(cc4c(c3Oc3cc5c(cc3OC)CCN(C)[C@@H]5C2)OCO4)CCN1C , reported IC50: 88.9 µM
